assay: Half life in NMRI mouse at 30 mg/kg, po; type: ADME, organism-based; details: in vivo
test-readout: half-life (h)
Note: unit h is implicit; provide only the numeric part.

Data point: `C[C@@H](NC(=O)c1nn(-c2ccccc2Cl)c(-c2ccc(Cl)cc2)c1Cc1nn[nH]n1)c1ccc(C(F)(F)F)cc1` ; half-life = 4

* * *

experiment: Drug concentration in DIO mouse adipose tissue assessed as fold increase at 10 mg/kg, po measured for 6 hrs relative to plasma concentration; type: ADME, organism-based; details: read-out: FC
A collection of compounds and their measured Kp at 6 h
Respond with the number and no other words.

structure	Kp at 6 h
C[C@@H](NC(=O)c1nn(-c2ccccc2Cl)c(-c2ccc(Cl)cc2)c1Cc1nn[nH]n1)c1ccc(OC(F)(F)F)cc1	5

Turning now to a further record.
Data point: `C[C@@H](NC(=O)c1nn(-c2ccccc2Cl)c(-c2ccc(Cl)cc2)c1Cc1nn[nH]n1)c1ccc(C(F)(F)F)cc1` ; Kp at 6 h = 5

* * *

assay: Subchronic toxicity in DIO mouse assessed as reduction in body weight at 10 mg/kg, po measured after 7 days; format: organism-based; design: scale not given: the % may be the effect or the level left; details: in vivo, 168 h, time 7 day
A collection of molecules and their measured Activity
Note: unit % is implicit; provide only the numeric part.

structure	test-readout	scale-unit	experimental-value
O=C(O)Cc1c(C(=O)N2CCC(c3ccccc3F)CC2)nn(-c2ccccc2Cl)c1-c1ccc(Cl)cc1	Activity	%	6.4

Data point: `C[C@@H](NC(=O)c1nn(-c2ccccc2Cl)c(-c2ccc(Cl)cc2)c1Cc1nn[nH]n1)c1ccc(F)c(Cl)c1` ; Activity = 2.4

Data point: `C[C@@H](NC(=O)c1nn(-c2ccccc2Cl)c(-c2ccc(Cl)cc2)c1Cc1nn[nH]n1)c1ccc(OC(F)(F)F)cc1` ; Activity = 11.8

* * *

test: Solubility of compound; type: physicochemical
A collection of compounds and their measured solubility
Note: unit µM is implicit; provide only the numeric part.

structure	solubility (µM)
NC(=O)Cc1c(C(=O)N2CCC(O)(c3cccc(F)c3)CC2)nn(-c2ccccc2Cl)c1-c1ccc(Cl)cc1	62
O=C(O)Cc1c(C(=O)N2CCC(Oc3cccc(F)c3)CC2)nn(-c2ccccc2Cl)c1-c1ccc(Cl)cc1	155
N#Cc1ccc(C2(O)CCN(C(=O)c3nn(-c4ccccc4Cl)c(-c4ccc(Cl)cc4)c3CC(N)=O)CC2)cc1	73
C[C@@H](NC(=O)c1nn(-c2ccccc2Cl)c(-c2ccc(Cl)cc2)c1CC(N)=O)c1ccc(C(F)(F)F)nc1	21
O=C(O)Cc1c(C(=O)N2CCC(Oc3ccc(F)c(F)c3)CC2)nn(-c2ccccc2Cl)c1-c1ccc(Cl)cc1	500

Data point: `N#Cc1cccc(OC2CCN(C(=O)c3nn(-c4ccccc4Cl)c(-c4ccc(Cl)cc4)c3CC(=O)O)CC2)c1` ; solubility = 107

* * *

A collection of molecules and their measured IC50
target: Cannabinoid receptor 1 (Homo sapiens); assay: Inverse agonist activity at human CB1 receptor expressed in CHO-K1 cell membrane by GTP-gamma-S assay; assay type: functional, cell membranes
Sequence (P21554 whole entry): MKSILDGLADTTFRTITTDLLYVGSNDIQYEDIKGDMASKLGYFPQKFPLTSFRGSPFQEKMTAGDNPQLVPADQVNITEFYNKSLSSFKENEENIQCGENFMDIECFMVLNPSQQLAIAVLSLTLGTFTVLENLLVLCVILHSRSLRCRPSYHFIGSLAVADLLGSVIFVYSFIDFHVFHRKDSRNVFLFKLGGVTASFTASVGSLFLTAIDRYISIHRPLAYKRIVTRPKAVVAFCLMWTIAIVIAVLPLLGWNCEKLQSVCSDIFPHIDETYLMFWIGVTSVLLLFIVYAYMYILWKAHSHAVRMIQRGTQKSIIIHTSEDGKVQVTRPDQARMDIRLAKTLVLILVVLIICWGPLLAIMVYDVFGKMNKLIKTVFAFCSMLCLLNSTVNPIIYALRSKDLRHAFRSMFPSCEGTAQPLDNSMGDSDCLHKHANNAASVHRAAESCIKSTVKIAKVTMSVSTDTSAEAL
Note: unit nM is implicit; provide only the numeric part.

Illustrative cases are given below, each with its answer.
molecule	IC50 / nM
CC(C)S(=O)(=O)N1CCC(NC(=O)c2nn(-c3ccccc3Cl)c(-c3ccc(Cl)cc3)c2CC(N)=O)CC1	1.9
NC(=O)Cc1c(C(=O)N2CCC(O)(c3cccc(F)c3)CC2)nn(-c2ccccc2Cl)c1-c1ccc(Cl)cc1	0.5
O=C(c1nn(-c2ccccc2Cl)c(-c2ccc(Cl)cc2)c1Cc1nn[nH]n1)N1CCC(Oc2ccc(OC(F)(F)F)cc2)CC1	64

Turning now to a further record.
Data point: C[C@@H]1CC(O)(c2cccc(F)c2)C[C@H](C)N1C(=O)c1nn(-c2ccccc2Cl)c(-c2ccc(Cl)cc2)c1CC(N)=O (some centres undefined) ; IC50 = 2.2

* * *

experiment: Cmax in NMRI mouse at 30 mg/kg, po; assay type: ADME, organism-based; parameters: dose 30 mg/kg, route po; settings: in vivo
test-readout: Cmax (µM)
Note: unit µM is implicit; provide only the numeric part.

Data point: `C[C@@H](NC(=O)c1nn(-c2ccccc2Cl)c(-c2ccc(Cl)cc2)c1Cc1nn[nH]n1)c1ccc(C(F)(F)F)cc1` ; Cmax = 41

* * *

assay: Clearance in rat hepatocytes assessed per million cells; format: ADME, cell-based, Hepatocyte
test-readout: log10(CLH) (log10 of the value in µL/min/1e6 cells)
Friendly reminder: values = log10 of CLH, unit µL/min/1e6 cells.

structure	log10(CLH)
NC(=O)Cc1c(C(=O)NC2CCN(C(=O)C3CC3)CC2)nn(-c2ccccc2Cl)c1-c1ccc(Cl)cc1	1.26
CS(=O)(=O)N1CCC(NC(=O)c2nn(-c3ccccc3Cl)c(-c3ccc(Cl)cc3)c2CC(N)=O)CC1	0.90
C[C@@H](NC(=O)c1nn(-c2ccccc2Cl)c(-c2ccc(Cl)cc2)c1Cc1nn[nH]n1)c1ccc(C(F)(F)F)cc1	1.20
CCN1C(=O)OC2(CCN(C(=O)c3nn(-c4ccccc4Cl)c(-c4ccc(Cl)cc4)c3CC(N)=O)CC2)C1=O	1.32

Data point: `O=C(O)Cc1c(C(=O)N2CCC(Oc3ccc(Cl)cc3F)CC2)nn(-c2ccccc2Cl)c1-c1ccc(Cl)cc1` ; log10(CLH) = 1.45

Data point: `CC(C)c1noc(C2(O)CCN(C(=O)c3nn(-c4ccccc4Cl)c(-c4ccc(Cl)cc4)c3CC(N)=O)CC2)n1` ; log10(CLH) = 1.81

Data point: `NC(=O)Cc1c(C(=O)N2CCC(O)(c3cccc(F)c3)CC2)nn(-c2ccccc2Cl)c1-c1ccc(Cl)cc1` ; log10(CLH) = 1.20

Data point: `N#Cc1cccc(OC2CCN(C(=O)c3nn(-c4ccccc4Cl)c(-c4ccc(Cl)cc4)c3CC(=O)O)CC2)c1` ; log10(CLH) = 1.41

Data point: `NC(=O)Cc1c(C(=O)N2CCC(O)(c3ccc(F)cn3)CC2)nn(-c2ccccc2Cl)c1-c1ccc(Cl)cc1` ; log10(CLH) = 1.26

Data point: `O=C(c1nn(-c2ccccc2Cl)c(-c2ccc(Cl)cc2)c1Cc1nn[nH]n1)N1CCC(Oc2cccc(Cl)c2)CC1` ; log10(CLH) = 1.18

Data point: `O=C(c1nn(-c2ccccc2Cl)c(-c2ccc(Cl)cc2)c1Cc1nn[nH]n1)N1CCC(Oc2ccc(Cl)cc2)CC1` ; log10(CLH) = 1.89

Data point: `O=C(c1nn(-c2ccccc2Cl)c(-c2ccc(Cl)cc2)c1Cc1nn[nH]n1)N1CCC(Oc2cccc(F)c2F)CC1` ; log10(CLH) = 1.15

Data point: `O=C(c1nn(-c2ccccc2Cl)c(-c2ccc(Cl)cc2)c1Cc1nn[nH]n1)N1CCC(Oc2ccc(OC(F)(F)F)cc2)CC1` ; log10(CLH) = 1.15

Data point: `O=C(c1nn(-c2ccccc2Cl)c(-c2ccc(Cl)cc2)c1Cc1nn[nH]n1)N1CCC(c2ccccc2F)CC1` ; log10(CLH) = 1.52

Data point: `O=C(c1nn(-c2ccccc2Cl)c(-c2ccc(Cl)cc2)c1Cc1nn[nH]n1)N1CCC(Oc2ccc(F)c(F)c2)CC1` ; log10(CLH) = 1.65

Data point: `NC(=O)Cc1c(C(=O)N2CCC(Oc3cccc(F)c3)CC2)nn(-c2ccccc2Cl)c1-c1ccc(Cl)cc1` ; log10(CLH) = 1.68

* * *

experiment: Half life in NMRI mouse at 2 mg/kg, iv; assay type: ADME, organism-based; details: in vivo
test-readout: half-life (h)
Note: unit h is implicit; provide only the numeric part.

Data point: `O=C(O)Cc1c(C(=O)N2CCC(c3ccccc3F)CC2)nn(-c2ccccc2Cl)c1-c1ccc(Cl)cc1` ; half-life = 3.1

Data point: `C[C@@H](NC(=O)c1nn(-c2ccccc2Cl)c(-c2ccc(Cl)cc2)c1Cc1nn[nH]n1)c1ccc(C(F)(F)F)cc1` ; half-life = 2.5

* * *

assay: Lipophilicity, logD of compound by chromatographic analysis; assay type: physicochemical
Cut-off 3 on chromatographic logD, inclusive. At or above means Y; below means N.

compound	label-value
O=C(c1nn(-c2ccccc2Cl)c(-c2ccc(Cl)cc2)c1Cc1nn[nH]n1)N1CCC(Oc2cccc(F)c2)CC1	N
O=C(O)Cc1c(C(=O)N2CCC(Oc3ccc(F)cc3)CC2)nn(-c2ccccc2Cl)c1-c1ccc(Cl)cc1	Y
C[C@@H](NC(=O)c1nn(-c2ccccc2Cl)c(-c2ccc(Cl)cc2)c1Cc1nn[nH]n1)c1ccc(C(F)(F)F)cc1	N
C[C@@H](NC(=O)c1nn(-c2ccccc2Cl)c(-c2ccc(Cl)cc2)c1Cc1nn[nH]n1)c1ccc(Br)cc1	N
O=C(O)Cc1c(C(=O)N2CCC(Oc3cccc(C(F)(F)F)c3)CC2)nn(-c2ccccc2Cl)c1-c1ccc(Cl)cc1	N

q: Given the entry `C[C@@H](NC(=O)c1nn(-c2ccccc2Cl)c(-c2ccc(Cl)cc2)c1Cc1nn[nH]n1)c1ccc(F)c(Cl)c1` , answer whether its chromatographic logD meets or surpasses 3.
a: N

q: Given the entry `O=C(O)Cc1c(C(=O)N2CCC(c3ccccc3F)CC2)nn(-c2ccccc2Cl)c1-c1ccc(Cl)cc1` , answer whether its chromatographic logD meets or surpasses 3.
a: N

q: Given the entry C[C@@H]1CC(O)(c2ccccc2F)C[C@H](C)N1C(=O)c1nn(-c2ccccc2Cl)c(-c2ccc(Cl)cc2)c1CC(N)=O (stereo partly specified) , answer whether its chromatographic logD meets or surpasses 3.
a: Y

q: Given the entry `O=C(O)Cc1c(C(=O)N2CCC(Oc3ccc(OC(F)(F)F)cc3)CC2)nn(-c2ccccc2Cl)c1-c1ccc(Cl)cc1` , answer whether its chromatographic logD meets or surpasses 3.
a: Y

q: Given the entry `CC(=O)N1CCC(NC(=O)c2nn(-c3ccccc3Cl)c(-c3ccc(Cl)cc3)c2CC(N)=O)CC1` , answer whether its chromatographic logD meets or surpasses 3.
a: N
